Values compiled from the supplement of paper PMC4022240.

system.tested: anti-H3K4me3 antibody ab8580
run.description: peptide microarray binding signal (635 nm), min-max normalized on array (fraction of array maximum); higher = stronger binding
test.context: peptide region: Unmod H2B variant; binder concentration: 1:10,000 dilution
The class of a record is decided solely by its measured peptide microarray binding signal; consult LOW = under 0.001, MEDIUM = from 0.001 up to 0.003, HIGH = 0.003 and over

Query :: Band assignment needed for YSKRSTISSREIQ [Unmod H2B variant Y S K R S T I S S R E I Q] please.
Result :: MEDIUM

Query :: Band assignment needed for DIFERIAGEASRL [Unmod H2B variant D I F E R I A G E A S R L] please.
Result :: HIGH

Query :: Band assignment needed for APKKGSKKAVTKA [Unmod H2B variant A P K K G S K K A V T K A] please.
Result :: LOW

Query :: Band assignment needed for PELAKSAPAPKKG [Unmod H2B variant P E L A K S A P A P K K G] please.
Result :: MEDIUM

Query :: Band assignment needed for IAGEASRLAHYNK [Unmod H2B variant I A G E A S R L A H Y N K] please.
Result :: HIGH

Query :: Band assignment needed for GISSKAMGIMNSF [Unmod H2B variant G I S S K A M G I M N S F] please.
Result :: HIGH

Query :: Band assignment needed for PEPSKSAPAPKKG [Unmod H2B variant P E P S K S A P A P K K G] please.
Result :: MEDIUM

Query :: Band assignment needed for AMSIMNSFVTDIF [Unmod H2B variant A M S I M N S F V T D I F] please.
Result :: HIGH

Query :: Band assignment needed for GISSKAMSIMNSF [Unmod H2B variant G I S S K A M S I M N S F] please.
Result :: MEDIUM

Query :: Band assignment needed for KTQKKEGKKRKRT [Unmod H2B variant K T Q K K E G K K R K R T] please.
Result :: MEDIUM

Query :: Band assignment needed for NSFVNDIFERIAG [Unmod H2B variant N S F V N D I F E R I A G] please.
Result :: MEDIUM

Query :: Band assignment needed for KAQKKDGKKRKRS [Unmod H2B variant K A Q K K D G K K R K R S] please.
Result :: MEDIUM

Query :: Band assignment needed for AMGIMNSFVNDIF [Unmod H2B variant A M G I M N S F V N D I F] please.
Result :: HIGH

Query :: Band assignment needed for KVLKQVHPDTGIS [Unmod H2B variant K V L K Q V H P D T G I S] please.
Result :: MEDIUM

Query :: Band assignment needed for ISKKGFKKAVVKT [Unmod H2B variant I S K K G F K K A V V K T] please.
Result :: LOW

Query :: Band assignment needed for KHAVSEGTKAVTK [Unmod H2B variant K H A V S E G T K A V T K] please.
Result :: MEDIUM

Query :: Band assignment needed for VPKKGSKKAINKA [Unmod H2B variant V P K K G S K K A I N K A] please.
Result :: LOW

Query :: Band assignment needed for PKKGSKKAVTKAQ [Unmod H2B variant P K K G S K K A V T K A Q] please.
Result :: LOW
